- subject_of_test: UniProt P48736
- Sequence (P48736 whole entry, canonical isoform): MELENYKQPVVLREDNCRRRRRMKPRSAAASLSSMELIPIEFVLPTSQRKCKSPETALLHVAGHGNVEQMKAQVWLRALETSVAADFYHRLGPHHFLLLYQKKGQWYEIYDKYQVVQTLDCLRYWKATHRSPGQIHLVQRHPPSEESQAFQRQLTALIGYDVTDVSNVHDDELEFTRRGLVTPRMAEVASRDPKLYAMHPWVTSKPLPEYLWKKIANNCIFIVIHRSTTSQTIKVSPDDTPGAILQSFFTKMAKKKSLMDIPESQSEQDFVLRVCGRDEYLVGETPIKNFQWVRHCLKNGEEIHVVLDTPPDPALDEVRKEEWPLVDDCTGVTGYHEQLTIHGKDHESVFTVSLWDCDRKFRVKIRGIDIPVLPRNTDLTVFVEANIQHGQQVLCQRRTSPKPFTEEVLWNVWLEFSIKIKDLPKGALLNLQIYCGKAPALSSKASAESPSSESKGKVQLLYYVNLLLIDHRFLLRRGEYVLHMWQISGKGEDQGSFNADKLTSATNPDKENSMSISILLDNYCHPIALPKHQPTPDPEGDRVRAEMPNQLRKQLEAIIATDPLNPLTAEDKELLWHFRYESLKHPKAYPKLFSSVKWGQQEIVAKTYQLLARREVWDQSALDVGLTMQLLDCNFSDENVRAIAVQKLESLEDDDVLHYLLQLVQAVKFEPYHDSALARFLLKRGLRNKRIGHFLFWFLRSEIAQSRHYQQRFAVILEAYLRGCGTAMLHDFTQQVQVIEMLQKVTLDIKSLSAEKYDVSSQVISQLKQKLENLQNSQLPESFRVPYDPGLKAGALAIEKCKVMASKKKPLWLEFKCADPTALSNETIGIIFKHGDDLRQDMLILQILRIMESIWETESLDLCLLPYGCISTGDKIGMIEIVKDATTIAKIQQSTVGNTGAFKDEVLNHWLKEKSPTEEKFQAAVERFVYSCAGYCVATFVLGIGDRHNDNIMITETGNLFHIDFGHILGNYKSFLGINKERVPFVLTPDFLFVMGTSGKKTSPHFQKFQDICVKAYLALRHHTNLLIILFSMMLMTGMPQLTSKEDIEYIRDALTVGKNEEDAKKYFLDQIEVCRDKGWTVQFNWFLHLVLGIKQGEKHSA
- assay_summary: in vitro PI3Kγ inhibition assay (isoform selectivity)
- test_context: Table 4
Field: IC50. Provide a value for each of the compounds that follow.
Please reply with the bare figure in nM and do not write the unit itself.

// sample N#Cc1c(-c2cnc(N)nc2C(F)(F)F)nc(N2CCOCC2)nc1N1CCOCC1 [Compound 17p] , its IC50 was 286

// sample N#Cc1c(-c2cccc(O)c2)nc(N2CCOCC2)nc1N1CCOCC1 [Compound 17e] , its IC50 was 318

// sample CNc1ncc(-c2nc(N3CCOCC3)nc(N3CCOCC3)c2C#N)cn1 [Compound 17o] , its IC50 was 176
